Tested on: A549
Method description: Antiproliferative activity against human A549 cells after 72 hrs by SRB assay
Type: functional, cell-based
Measured parameter: IC50 (µM)

I = CC(C)C[C@H](NC(=O)C(C)Sc1cc(NS(=O)(=O)c2ccccc2)c2ccccc2c1O)B(O)O (stereo in doubt; 3b)
II = CC(C)C[C@H](NC(=O)C(C)Sc1cc(NS(=O)(=O)c2ccc(Cl)cc2)c2ccccc2c1O)B(O)O (stereo in doubt; 3c)
Select the item whose IC50 value is smaller, choosing between I and II . Pick one and reply with its label.
I

* * *

Tested on: MCF7
Method description: Antiproliferative activity against human MCF7 cells after 72 hrs by SRB assay
Assay type: functional, cell-based
Condition details: mcf7
pIC50: −log10 of the molar value.
Measured parameter: pIC50

• CC(C)C[C@H](NC(=O)C(C)Sc1cc(NS(=O)(=O)c2ccccc2)c2ccccc2c1O)B(O)O (stereo in doubt; 3b-1) = 4.95
• CC(C)C[C@H](NC(=O)C(C)Sc1cc(NS(=O)(=O)c2ccc(Cl)cc2)c2ccccc2c1O)B(O)O (stereo in doubt; 3c-1) = 4.97

* * *

Target under test: Proteasome Macropain subunit MB1 (Homo sapiens) (UniProt P28074)
Sequence (P28074 whole entry): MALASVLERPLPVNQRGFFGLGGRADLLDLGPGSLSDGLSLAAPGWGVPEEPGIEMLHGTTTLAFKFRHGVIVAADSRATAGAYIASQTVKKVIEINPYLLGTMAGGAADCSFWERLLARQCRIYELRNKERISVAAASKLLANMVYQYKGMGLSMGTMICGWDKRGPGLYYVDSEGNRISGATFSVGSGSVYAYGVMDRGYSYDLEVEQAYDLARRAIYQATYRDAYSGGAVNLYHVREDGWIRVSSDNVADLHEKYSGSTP
Method description: Inhibition of chymotrypsin-like activity of human 20S proteasome at 100 nM using Suc-Leu-Leu-Val-Tyr-AMC as substrate by fluorescence assay relative to control
Measured parameter: inhibition (%)

See these solved cases before continuing.
- CC(=O)Nc1ccc(S(=O)(=O)Nc2cc(SCC(=O)N[C@@H](CC(C)C)B(O)O)c(O)c3ccccc23)cc1: 40.8
- Cc1ccc(S(=O)(=O)Nc2cc(SCCC(=O)N[C@@H](CC(C)C)B(O)O)c(O)c3ccccc23)cc1: 54.2
- CC(C)C[C@H](NC(=O)CCSc1cc(NS(=O)(=O)c2ccccc2)c2ccccc2c1O)B(O)O: 45.6
- O=C(O)CSc1cc(NS(=O)(=O)c2cccs2)c2ccccc2c1O: 6.86
- CC(=O)Nc1ccc(S(=O)(=O)Nc2cc(SC(C)C(=O)N[C@@H](CC(C)C)B(O)O)c(O)c3ccccc23)cc1 (some centres undefined): 27.4

1 = CC(C)C[C@H](NC(=O)C(C)Sc1cc(NS(=O)(=O)c2ccc(Cl)cc2)c2ccccc2c1O)B(O)O (stereo in doubt; 3c)
2 = CC(C)C[C@H](NC(=O)C(C)Sc1cc(NS(=O)(=O)c2ccccc2)c2ccccc2c1O)B(O)O (stereo in doubt; 3b)
3 = C[S+](C)[O-]
Please list the entries, largest inhibition first. Lab note: final answer is the ordered label list.
1, 2, 3
(1: 41.5%, 2: 22.6%, 3: 4.89%)

I = CC(=O)Nc1ccc(S(=O)(=O)Nc2cc(SCCC(=O)N[C@@H](CC(C)C)B(O)O)c(O)c3ccccc23)cc1
II = CC(C)C[C@H](NC(=O)C(C)Sc1cc(NS(=O)(=O)c2ccccc2)c2ccccc2c1O)B(O)O (stereo in doubt; 3b-1)
In terms of reported inhibition, does I or II have the smaller number? Give the label under which the chosen entry appears.
II
(II: 25.4%, I: 38.4%)

* * *

Test system: MCF7
Method description: Antiproliferative activity against human MCF7 cells after 72 hrs by SRB assay
Assay type: functional, cell-based
Condition details: Homo sapiens, MCF7, 72 h
pIC50: −log10 of the molar value.
Measured parameter: pIC50

* CC(C)C[C@H](NC(=O)CCSc1cc(NS(=O)(=O)c2ccccc2)c2ccccc2c1O)B(O)O | 5.13
* CC(C)C[C@H](NC(=O)C(C)Sc1cc(NS(=O)(=O)c2ccc(Cl)cc2)c2ccccc2c1O)B(O)O (stereo in doubt; 3c) | 4.99
* CC(C)C[C@H](NC(=O)[C@H](Cc1ccccc1)NC(=O)c1cnccn1)B(O)O | 4.74
* Cc1ccc(S(=O)(=O)Nc2cc(SCCC(=O)N[C@@H](CC(C)C)B(O)O)c(O)c3ccccc23)cc1 | 5.16
* CC(C)C[C@H](NC(=O)CCSc1cc(NS(=O)(=O)c2ccc(Cl)cc2)c2ccccc2c1O)B(O)O | 5.16

I = Cc1ccc(S(=O)(=O)Nc2cc(SC(C)C(=O)N[C@@H](CC(C)C)B(O)O)c(O)c3ccccc23)cc1 (stereo partly drawn)
II = CC(C)C[C@H](NC(=O)C(C)Sc1cc(NS(=O)(=O)c2ccccc2)c2ccccc2c1O)B(O)O (stereo in doubt; 3b)
III = CC(C)C[C@H](NC(=O)CSc1cc(NS(=O)(=O)c2ccccc2)c2ccccc2c1O)B(O)O
Give the ascending ranking of the items by reported pIC50. # list labels per requested ordering
II, I, III
(II: 4.78, I: 5.06, III: 5.38)
